Reference source: patent US20140079753A1

Target: T1, BMP2 (MEDTRONIC, INC.) (UniProt P12643 283-396, biotinylated with NHS-biotin (average of one biotin per protein molecule) in the phage ELISA; not biotinylated in the peptide ELISA)
T1 construct: also called bone morphogenic protein 2
T1 sequence (P12643 283-396 limits assumed): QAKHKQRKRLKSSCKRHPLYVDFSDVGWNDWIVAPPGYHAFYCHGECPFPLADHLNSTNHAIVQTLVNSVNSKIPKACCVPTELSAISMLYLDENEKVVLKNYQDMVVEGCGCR
Experiment: ELISA of synthetic truncation peptides on BMP2; legend in paragraph 124: (-) no binding
quantity: binding result

[
  {
    "binder": "IWDDWIGYS (C-terminal GSSGK(biotin) or other spacer group possible; not stated for this assay) [Truncation peptide SEQ ID NO: 193]",
    "endpoint-value": "no binding"
  },
  {
    "binder": "IWDDWI (C-terminal GSSGK(biotin) or other spacer group possible; not stated for this assay, also called IWDDWI) [Truncation peptide SEQ ID NO: 197]",
    "endpoint-value": "no binding"
  },
  {
    "binder": "WDDWIG (C-terminal GSSGK(biotin) or other spacer group possible; not stated for this assay, also called WDDWIG) [Truncation peptide SEQ ID NO: 196]",
    "endpoint-value": "no binding"
  },
  {
    "binder": "WDDWIGY (C-terminal GSSGK(biotin) or other spacer group possible; not stated for this assay, also called WDDWIGY) [Truncation peptide SEQ ID NO: 195]",
    "endpoint-value": "no binding"
  },
  {
    "binder": "IWDDWIGY (C-terminal GSSGK(biotin) or other spacer group possible; not stated for this assay) [Truncation peptide SEQ ID NO: 194]",
    "endpoint-value": "no binding"
  },
  {
    "binder": "DWIGYSR (C-terminal GSSGK(biotin) or other spacer group possible; not stated for this assay, also called DWIGYSR) [Truncation peptide SEQ ID NO: 188]",
    "endpoint-value": "no binding"
  },
  {
    "binder": "IWDDWIGYSR (C-terminal GSSGK(biotin) or other spacer group possible; not stated for this assay) [Truncation peptide SEQ ID NO: 185]",
    "endpoint-value": "no binding"
  },
  {
    "binder": "WDDWIGYSR (C-terminal GSSGK(biotin) or other spacer group possible; not stated for this assay) [Truncation peptide SEQ ID NO: 186]",
    "endpoint-value": "no binding"
  },
  {
    "binder": "DDWIGYSR (C-terminal GSSGK(biotin) or other spacer group possible; not stated for this assay) [Truncation peptide SEQ ID NO: 187]",
    "endpoint-value": "no binding"
  }
]
